For each of the molecules below, state its IC50.
# TARGET UNDER TEST: CYP2C19 (Homo sapiens, UniProt P33261)
# Construct: 0.1 mg/mL protein human liver microsomes (BD Gentest); tissue BD Gentest; host or cells: human liver microsomes
# Sequence (P33261 whole entry): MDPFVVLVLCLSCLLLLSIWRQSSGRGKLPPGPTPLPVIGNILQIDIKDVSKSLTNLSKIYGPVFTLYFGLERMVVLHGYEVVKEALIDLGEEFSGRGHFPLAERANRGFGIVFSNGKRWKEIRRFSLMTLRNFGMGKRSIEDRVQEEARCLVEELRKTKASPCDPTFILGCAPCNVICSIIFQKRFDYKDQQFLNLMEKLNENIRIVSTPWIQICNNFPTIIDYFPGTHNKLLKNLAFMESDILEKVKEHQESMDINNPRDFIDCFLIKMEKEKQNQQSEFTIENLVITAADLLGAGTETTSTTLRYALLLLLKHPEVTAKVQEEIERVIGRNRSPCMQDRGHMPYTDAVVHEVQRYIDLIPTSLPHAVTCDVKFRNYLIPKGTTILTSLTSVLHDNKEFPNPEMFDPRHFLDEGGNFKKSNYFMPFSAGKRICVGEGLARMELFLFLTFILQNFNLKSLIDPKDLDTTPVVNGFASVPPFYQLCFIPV
# METHOD NOTES: Cocktail assay for CYPs in human liver microsomes: CYP2C19 (mephenytoin 4′-hydroxylation)
# Type: biochemical
# APPLIED CONDITIONS: human liver microsomes 0.1 mg/mL, 30 μM mephenytoin, 10 min at 37° C., 6 concentrations up to 10 μM; read-out: IC50 (nM) CYP2C19

The cases that follow already have their IC50 on record.
{"MOLECULE": "CC1CN(Cc2cncn2[C@H](C)c2ccc(C#N)cc2)CC(C)N1C(=O)C1CC(F)(F)C1 (stereo partly drawn) [Compound 58]", "RESULT": "> 10000 nM"}
{"MOLECULE": "CNc1ncc(CN2CCN(Cc3cncn3[C@H](C)c3ccc(F)cc3)CC2=O)s1 [Compound 67]", "RESULT": "> 10000 nM"}

Here's the next entry for you.
Query block: Given CC(c1ccccc1-c1ccc(F)cc1)n1cncc1CN1CCN(CCO)CC1 (stereo not drawn) [Compound 71] , state its recorded IC50.
Result block: > 10000 nM
